Exercise: for every item that follows, state its recorded koff.
- System under test: T1, human CD19 (human, UniProt P15391 20-291, biotinylated in the Biacore assay of Table 11)
- T1 construct: also called isolated CD19; Human CD19 Protein
- T1 sequence (looked up): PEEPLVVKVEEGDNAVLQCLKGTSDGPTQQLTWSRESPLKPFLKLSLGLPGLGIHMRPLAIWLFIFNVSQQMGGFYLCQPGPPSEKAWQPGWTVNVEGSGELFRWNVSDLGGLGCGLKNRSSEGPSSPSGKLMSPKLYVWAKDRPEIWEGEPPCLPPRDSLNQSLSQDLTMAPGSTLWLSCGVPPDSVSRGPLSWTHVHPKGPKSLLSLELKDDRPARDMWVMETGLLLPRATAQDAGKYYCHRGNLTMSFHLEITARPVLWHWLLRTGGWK
- Protocol description: Octet HTX (ForteBio), IgG on AHC sensor, 1:1 fit
Answers are plain numbers, in s⁻¹.

Batch request: koff for each of the following binders.
1. CNG-CD19-7 (antibody, V domains shown, tested as IgG; also called parental antibody) VH: QVQLQESGPGLVKPSQTLSLTCTVSGGSISTSGMGVGWIRQHPGKGLEWIGHIWWDDDKRYNPALKSRVTISVDTSKNQFSLKLSSVTAADTAVYYCARMELWSYYFDYWGQGTLVTVSS VL: EIVLTQSPATLSLSPGERATLSCSASSSVSYMHWYQQKPGQAPRLLIYDTSKLASGIPARFSGSGSGTDFTLTISSLEPEDFAVYYCFQGSVYPFTFGQGTKLEIK
2. CNG-CD19-710 (antibody, V domains shown, tested as IgG produced in yeast) VH: QVQLQESGPGLVKPSQTLSLTCTVSGVSISTSSMGVGWIRQHPGKGLEWIGHAWWDDDKRYNPALKSRVTISVDTSKNQFSLKLSSVTAADTAVYYCARMELWSYYFDPWGQGTLVTVSS VL: EIVLTQSPATLSLSPGERATLSCSASSSFSYMHWYQQKPGQAPRLLIYDTSKLASGIPARFSGSGSGTDFTLTISSLEPEDFAVYYCFQGSVYPFTFGQGTKLEIK

[0.000396, "4e-05"]

Batch request: koff for each of the following binders.
1. CNG-CD19-108 (antibody, V domains shown, tested as IgG produced in yeast) VH: QVQLVQSGAEVKKPGASVKVSCKASGYDFTDYIVHWVRQAPGQGLEWMGYINPYNDGSKYTEKFQGRVTMTSDTSISTAYMELSRLRSDDTAVYYCARGTYYYGPQLFDYWGQGTTVTVSS VL: DIVMTQTPLSLSVTPGQPASISCKSSQSLETVTGTTYLNWYLQKPGQSPQLLIYRVSKRFSGVPDRFSGSGSGTDFTLKISRVEAEDVGVYYCLQLLEDPPTFGQGTKLEIK
2. CNG-CD19-103 (antibody, V domains shown, tested as IgG produced in yeast) VH: QVQLVQSGAEVKKPGASVKVSCKASGYTFTDYIMHWVRQAPGQGLEWMGYINPYNDGSKYTEKFQGRVTMTSDTSISTAYMELSRLRSDDTAVYYCARGTYYYGPQLFDYWGQGTTVTVSS VL: DIVMTQTPLSLSVTPGQPASISCKSSQSLETATGTTYLNWYLQKPGQSPQLLIYRVSRRFSGVPDRFSGSGSGTDFTLKISRVEAEDVGVYYCLQLLEDPYSFGQGTKLEIK
3. CNG-CD19-704 (antibody, V domains shown, tested as IgG produced in yeast) VH: QVQLQESGPGLVKPSQTLSLTCTVSGGSIASGMGVGWIRQHPGKGLEWIGHIWWDDDKRYNPALKSRVTISVDTSKNQFSLKLSSVTAADTAVYYCARMELWSYYFDGWGQGTLVTVSS VL: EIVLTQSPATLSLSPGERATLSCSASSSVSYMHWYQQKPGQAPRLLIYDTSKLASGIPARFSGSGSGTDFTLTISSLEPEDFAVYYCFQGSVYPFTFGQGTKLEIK
4. CNG-CD19-105 (antibody, V domains shown, tested as IgG produced in yeast) VH: QVQLVQSGAEVKKPGASVKVSCKASGYEFTDYIMHWVRQAPGQGLEWMGYINPYNDGSKYTEKFEGRVTMTSDTSISTAYMELSRLRSDDTAVYYCARGTYYYGPELFDYWGQGTTVTVSS VL: DIVMTQTPLSLSVTPGQPASISCKSSQRLETSTGTTYLNWYLQKPGQSPQLLIYRVSRRFSGVPDRFSGSGSGTDFTLKISRVEAEDVGVYYCLQLLEDPPTFGQGTKLEIK
5. CNG-CD19-107 (antibody, V domains shown, tested as IgG produced in yeast) VH: QVQLVQSGAEVKKPGASVKVSCKASGYDFTDYIMHWVRQAPGQGLEWMGYINPYNDGSKYTEKFQHRVTMTSDTSISTAYMELSRLRSDDTAVYYCARGTYYYGPQLFDYWGQGTTVTVSS VL: DIVMTQTPLSLSVTPGQPASISCKSSQSLETSTGTTYLNWYLQKPGQSPQLLIYRVSRRFSGVPDRFSGSGSGTDFTLKISRVEAEDVGVYYCLQLLEDPYTFGQGTKLEIK
6. CNG-CD19-703 (antibody, V domains shown, tested as IgG produced in yeast) VH: QVQLQESGPGLVKPSQTLSLTCTVSGGSISTSTMGVGWIRQHPGKGLEWIGFIWWDDDKRYNPNLKSRVTMSVDTSKNQFSLKLSSVTAADTAVYYCARMELWSYYFEYWGQGTLVTVSS VL: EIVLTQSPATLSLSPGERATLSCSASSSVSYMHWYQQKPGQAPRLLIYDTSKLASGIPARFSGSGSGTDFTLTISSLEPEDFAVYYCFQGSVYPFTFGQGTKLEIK

1: 5.26e-05; 2: 4e-05; 3: 0.000101; 4: 8.28e-05; 5: 5.71e-05; 6: 8.19e-05

Batch request: koff for each of the following binders.
1. CNG-CD19-104 (antibody, V domains shown, tested as IgG produced in yeast) VH: QVQLVQSGAEVKKPGASVKVSCKASGYDFTDYIVHWVRQAPGQGLEWMGYINPYNDGSKYTEKFQGRVTMTSDTSISTAYMELSRLRSDDTAVYYCARGTYYYGPELFDYWGQGTTVTVSS VL: DIVMTQTPLSLSVTPGQPASISCKSGQSLETSTGTTYLNWYLQKPGQSPQLLIYRVSRRFSGVPDRFSGSGSGTDFTLKISRVEAEDVGVYYCLQLLEDPYTFGQGTKLEIK
2. CNG-CD19-1 (antibody, V domains shown, tested as IgG; also called parental antibody) VH: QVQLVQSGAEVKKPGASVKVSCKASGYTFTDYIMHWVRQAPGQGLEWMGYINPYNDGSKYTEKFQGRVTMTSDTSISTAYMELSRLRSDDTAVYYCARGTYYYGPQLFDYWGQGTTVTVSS VL: DIVMTQTPLSLSVTPGQPASISCKSSQSLETSTGTTYLNWYLQKPGQSPQLLIYRVSKRFSGVPDRFSGSGSGTDFTLKISRVEAEDVGVYYCLQLLEDPYTFGQGTKLEIK

1: 6e-05; 2: 0.000114

Where these numbers come from: patent US20230037815A1
